assay: inhibitors of TNFa-induced NFkB p65 translocation, primary screen, imaging, HUVEC, MLSMR starter and 10KST1 sets (AID 438); details: HUVEC TNFa-induced p65 nuclear translocation; at 2 µM, 0% TNFa-plus-vehicle, 100% no-TNFa wells;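 further: compound added about 3h40 before a 20 min TNFalpha stimulation; signal is the nuclear over cytoplasmic p65 intensity ratio per well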
Activity calls are given as the source filed them.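 How the source made its calls: active means inhibition above 20% together with a positive visual image hit; inconclusive means visual image hit but inhibition not above 20%; inactive means no visual image hit.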
Outcome codes: t for active, f for inactive

[[record]]
compound = "CCOc1ccc2[nH]c(=O)c(C(c3nnnn3Cc3ccco3)N3CCC(C)CC3)cc2c1 (configuration not stated)"
discrete_label = "f"

[[record]]
compound = "O=C1NC(=O)C(c2cn(-c3ccccc3)nc2-c2ccc(F)cc2)N1 (configuration not stated)"
discrete_label = "f"

[[record]]
compound = "Cn1cccc1Cc1nnc(SCC(=O)Nc2ccc(F)cc2F)n1-c1ccc(F)cc1"
discrete_label = "f"

[[record]]
compound = "COc1ccc2[nH]c(C)c(C(=O)CN3CCOCC3)c2c1"
discrete_label = "f"

[[record]]
compound = "Cc1cc(C)cc(C(=O)N2CCC(C(N)=O)CC2)c1"
discrete_label = "f"

[[record]]
compound = "Cc1nn(CCO)c2c1C(=O)CCC2"
discrete_label = "f"

[[record]]
compound = "COC(=O)c1sc(S(=O)(=O)NCc2cccs2)c(C(=O)OC)c1C"
discrete_label = "f"

[[record]]
compound = "O=C(NCc1ccc2c(c1)OCO2)c1cccc2c1C(=O)N(C1CCCCC1)C2"
discrete_label = "f"

[[record]]
compound = "Cc1ccc(C)c(C(=O)CC2(O)C(=O)Nc3ccccc32)c1 (configuration not stated)"
discrete_label = "f"

[[record]]
compound = "Cn1c(Cl)nc2c1c(=O)n(Cc1cccc(Br)c1)c(=O)n2C"
discrete_label = "f"

[[record]]
compound = "Cc1cc(=O)oc(C)c1C(=O)NC12CC3CC(CC(C3)C1)C2"
discrete_label = "f"

[[record]]
compound = "Cc1cccc(OCCNC(=O)c2ncn[nH]2)c1"
discrete_label = "f"

[[record]]
compound = "CCOC(=O)N1CCN(CCC(=O)c2ccc(Cl)cc2)CC1"
discrete_label = "f"

[[record]]
compound = "Cc1nnc(N2C(=O)C(O)=C(C(=O)c3ccco3)C2c2ccc(F)cc2)s1 (configuration not stated)"
discrete_label = "f"

[[record]]
compound = "CCCCCOC(=O)Cc1c(C)nc(-c2ccccc2)[nH]c1=O"
discrete_label = "f"

[[record]]
compound = "COc1cc(OC)c(C2N(C)c3ccccc3N2C)cc1OC"
discrete_label = "f"

[[record]]
compound = "CC(=O)NC(=O)Nc1sc(=S)n(C)c1C"
discrete_label = "f"

[[record]]
compound = "COCCCNC(=O)c1ccccc1NS(=O)(=O)c1ccc(C)cc1"
discrete_label = "f"

[[record]]
compound = "COc1ccccc1C1/C(=C(/O)c2ccc(C)cc2)C(=O)C(=O)N1CCN1CCOCC1 (configuration not stated)"
discrete_label = "f"

[[record]]
compound = "CN(C)S(=O)(=O)Nc1ccc(Br)cc1F"
discrete_label = "f"

[[record]]
compound = "Cc1cc(Br)ccc1NC(=O)CNC(=O)CSc1n[nH]c(N)n1"
discrete_label = "f"

[[record]]
compound = "Cc1nc(N2CCc3ccccc32)[nH]c(=O)c1CCC(C)C"
discrete_label = "f"

[[record]]
compound = "Cc1cc(NCCNC2=CC(=O)CCC2)nc2ccccc12"
discrete_label = "f"

[[record]]
compound = "Cc1cccc2c(=O)oc(-c3ccc4c(c3)C(=O)N(CC3CCCO3)C4=O)nc12 (configuration not stated)"
discrete_label = "f"

[[record]]
compound = "N#Cc1cc2ccccc2nc1SCC(=O)Nc1ccccc1N1CCOCC1"
discrete_label = "f"

[[record]]
compound = "CCCCSc1nc(N)c(C#N)c(-c2cccs2)c1C#N"
discrete_label = "f"

[[record]]
compound = "CCOc1ccccc1-n1c(SCC(=O)NC2CCCC2)nnc1-c1ccoc1C"
discrete_label = "f"

[[record]]
compound = "COc1ccc(C2C3=C(CCCC3=O)Nc3nc(SCc4ccccc4)nn32)cc1OC (configuration not stated)"
discrete_label = "f"

[[record]]
compound = "CCn1c(=O)c(C(=O)NCCc2ccccc2)c(O)c2ccccc21"
discrete_label = "f"

[[record]]
compound = "CCOc1ccc2c(c1)n([O-])c1c([n+]2=O)CCCC1"
discrete_label = "f"

[[record]]
compound = "CCCn1c(SCC#N)nc2c(c1=O)C1(CCCC1)Cc1ccccc1-2"
discrete_label = "f"

[[record]]
compound = "COc1cc2c(cc1OC)-c1nnc(-c3cccs3)n1C(C)(C)C2"
discrete_label = "f"

[[record]]
compound = "O=C(NCc1ccccc1)/C(=N\\O)c1ccccc1"
discrete_label = "f"

[[record]]
compound = "c1ccc2ncc(-n3cnnn3)cc2c1"
discrete_label = "f"

[[record]]
compound = "CCc1nc(N2CCN(C(=O)c3ccccc3)CC2)c(C#N)c2c1COC(C)(C)C2"
discrete_label = "f"

[[record]]
compound = "CCn1c(C(C#N)/C(=N\\S(=O)(=O)c2cccs2)c2ccccc2)nc2ccccc21 (configuration not stated)"
discrete_label = "t"

[[record]]
compound = "N/C(=N\\S(=O)(=O)c1ccc(Cl)s1)c1ccccc1"
discrete_label = "f"

[[record]]
compound = "Cc1cc(C)n(-c2nc3nonc3nc2-n2nc(C)cc2C)n1"
discrete_label = "f"

[[record]]
compound = "N#Cc1cccc(-n2c(-c3ccccc3)nnc2-c2ccccc2)c1C#N"
discrete_label = "f"

[[record]]
compound = "COc1ccc(S(=O)(=O)Nc2ccccc2OC)cc1C"
discrete_label = "f"

[[record]]
compound = "Cc1cc(C)n(S(=O)(=O)/C=C/c2ccccc2)n1"
discrete_label = "f"

[[record]]
compound = "Cc1cccc(-c2nnc3n2N=C(c2ccccc2)CS3)c1"
discrete_label = "f"

[[record]]
compound = "CCN(CC)C(=O)CSc1nnc(-c2cc(OC)cc(OC)c2)o1"
discrete_label = "f"

[[record]]
compound = "CN(C)c1ccc(C=Nc2cnn(C)c2C(N)=O)cc1"
discrete_label = "f"

[[record]]
compound = "CCOC(=O)CNC(=O)CNC(=O)c1ccc(OC)cc1"
discrete_label = "f"

[[record]]
compound = "Cc1nc2c(c(N3CCOCC3)n1)OCC(=O)N2"
discrete_label = "f"

[[record]]
compound = "COC(=O)CSc1cc(C)nc(NC(C)=O)n1"
discrete_label = "f"


###

assay: inhibitors of poly I:C-induced TLR3 signaling, primary screen, cell-based, poly I:C stimulus, luciferase, 10K MLSCN set (AID 602277); details: HEK293-TLR3 RL24 IRF3 luciferase reporter, at 10 µM, stronger effect = higher value
Where inhibition equals or exceeds 20%, the correct label is True; where it does not, the label is False.

[[record]]
molecule = "CN1CCCC(OC(=O)c2ccc3c(c2)OCCO3)C1 (stereo unspecified)"
discrete_label = "False"

[[record]]
molecule = "CC1(C)CC(=O)c2cnc(NC(=O)Cc3ccc(Cl)cc3)nc2C1"
discrete_label = "False"

[[record]]
molecule = "COCCN(Cc1cc2cc3c(cc2n2nnnc12)OCO3)C(=O)c1ccccc1F"
discrete_label = "False"

[[record]]
molecule = "CCC1CCCN1Cn1cnc2c([nH]c3ccc(OC)cc32)c1=O (stereo unspecified)"
discrete_label = "True"

[[record]]
molecule = "CC(C)(C)C(=O)CNS(=O)(=O)c1ccc(S(=O)(=O)NC2CCCC2)cc1"
discrete_label = "True"

[[record]]
molecule = "O=C(c1ccccc1Oc1nnnn1-c1ccccc1)N1CCOCC1"
discrete_label = "True"


###

assay: inhibitors of mutant huntingtin aggregation, primary screen, imaging, exon1htt(103Q)mCFP cells, high-content imaging (AID 483); conditions: exon1htt(103Q)mCFP cell line, aggregate imaging, at 2 µM; measured here: cell count, toxicity;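 further: compound exposure lasted 3 days before fixation; percent of the per-plate median nuclei count of sample wells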
MEASUREMENT KIND: nuclei count

[[record]]
compound = "CCN(CC)Cc1csc(C(N)=O)c1"
result = "102%"

[[record]]
compound = "COC(=O)Nc1ccc(NC(C)=O)cc1"
result = "82.1%"

[[record]]
compound = "COc1ccc(C(=O)Oc2c(CN3CCOCC3)cc(Cl)c3cccnc23)cc1OC"
result = "100%"

[[record]]
compound = "O=C(O)COc1ccc(S(=O)(=O)NCCc2ccccc2)cc1"
result = "81.4%"

[[record]]
compound = "Cc1ccc2oc(-c3ccccc3C(=O)O)cc(=O)c2c1"
result = "107%"

[[record]]
compound = "CCOc1ccc(NC(=O)c2ccc3c(c2)N(Cc2ccc(F)cc2)C(=O)CS3=O)cc1 (configuration not stated)"
result = "105%"

[[record]]
compound = "C=CCOC(=O)COc1ccc2c(C)c(C)c(=O)oc2c1C"
result = "102%"

[[record]]
compound = "COc1cc(C2c3c(oc4c(C)cc(C)cc4c3=O)C(=O)N2Cc2cccnc2)ccc1O (configuration not stated)"
result = "107%"

[[record]]
compound = "CCOc1ccc(NS(=O)(=O)c2ccc(OCC(=O)N3CCCC3)cc2)cc1"
result = "98.7%"

[[record]]
compound = "CCn1cc(C2=NCC(C)O2)c2ccccc21 (configuration not stated)"
result = "83.2%"

[[record]]
compound = "CC(C)CN(C(=O)c1ccc(=O)n(C)n1)c1nc2ccccc2s1"
result = "93.5%"

[[record]]
compound = "c1ccc(CCn2nnnc2C(c2cccs2)N2CCOCC2)cc1 (configuration not stated)"
result = "124%"

